target.entity: recombinant human GCN2 protein (Homo sapiens)
measurement.description: General control nonderepressible 2 (GCN2) inhibitory capacity, 33P-ATP filter assay
settings: recombinant human GCN2, 70 uM [gamma-33P-ATP], 40 minutes, room temperature
pIC50: −log10 of the molar value.
Listed here are molecules together with their documented pIC50.

molecule	result
CNc1ncc2c(=O)n(-c3c(F)ccc(NS(=O)(=O)c4cc(Cl)cnc4OC)c3F)c(=O)n(C)c2n1 [Example 58]	6.52 to 7.00

Ask: // returns reported pIC50 for input Cc1ccc(Cl)cc1S(=O)(=O)Nc1ccc(F)c(-n2c(=O)c3cnc(N)nc3n(C)c2=O)c1F [Example 52]
Result: > 7.00

====

target.entity: recombinant human GCN2 protein (Homo sapiens, UniProt Q9P2K8)
Sequence (Q9P2K8 whole entry): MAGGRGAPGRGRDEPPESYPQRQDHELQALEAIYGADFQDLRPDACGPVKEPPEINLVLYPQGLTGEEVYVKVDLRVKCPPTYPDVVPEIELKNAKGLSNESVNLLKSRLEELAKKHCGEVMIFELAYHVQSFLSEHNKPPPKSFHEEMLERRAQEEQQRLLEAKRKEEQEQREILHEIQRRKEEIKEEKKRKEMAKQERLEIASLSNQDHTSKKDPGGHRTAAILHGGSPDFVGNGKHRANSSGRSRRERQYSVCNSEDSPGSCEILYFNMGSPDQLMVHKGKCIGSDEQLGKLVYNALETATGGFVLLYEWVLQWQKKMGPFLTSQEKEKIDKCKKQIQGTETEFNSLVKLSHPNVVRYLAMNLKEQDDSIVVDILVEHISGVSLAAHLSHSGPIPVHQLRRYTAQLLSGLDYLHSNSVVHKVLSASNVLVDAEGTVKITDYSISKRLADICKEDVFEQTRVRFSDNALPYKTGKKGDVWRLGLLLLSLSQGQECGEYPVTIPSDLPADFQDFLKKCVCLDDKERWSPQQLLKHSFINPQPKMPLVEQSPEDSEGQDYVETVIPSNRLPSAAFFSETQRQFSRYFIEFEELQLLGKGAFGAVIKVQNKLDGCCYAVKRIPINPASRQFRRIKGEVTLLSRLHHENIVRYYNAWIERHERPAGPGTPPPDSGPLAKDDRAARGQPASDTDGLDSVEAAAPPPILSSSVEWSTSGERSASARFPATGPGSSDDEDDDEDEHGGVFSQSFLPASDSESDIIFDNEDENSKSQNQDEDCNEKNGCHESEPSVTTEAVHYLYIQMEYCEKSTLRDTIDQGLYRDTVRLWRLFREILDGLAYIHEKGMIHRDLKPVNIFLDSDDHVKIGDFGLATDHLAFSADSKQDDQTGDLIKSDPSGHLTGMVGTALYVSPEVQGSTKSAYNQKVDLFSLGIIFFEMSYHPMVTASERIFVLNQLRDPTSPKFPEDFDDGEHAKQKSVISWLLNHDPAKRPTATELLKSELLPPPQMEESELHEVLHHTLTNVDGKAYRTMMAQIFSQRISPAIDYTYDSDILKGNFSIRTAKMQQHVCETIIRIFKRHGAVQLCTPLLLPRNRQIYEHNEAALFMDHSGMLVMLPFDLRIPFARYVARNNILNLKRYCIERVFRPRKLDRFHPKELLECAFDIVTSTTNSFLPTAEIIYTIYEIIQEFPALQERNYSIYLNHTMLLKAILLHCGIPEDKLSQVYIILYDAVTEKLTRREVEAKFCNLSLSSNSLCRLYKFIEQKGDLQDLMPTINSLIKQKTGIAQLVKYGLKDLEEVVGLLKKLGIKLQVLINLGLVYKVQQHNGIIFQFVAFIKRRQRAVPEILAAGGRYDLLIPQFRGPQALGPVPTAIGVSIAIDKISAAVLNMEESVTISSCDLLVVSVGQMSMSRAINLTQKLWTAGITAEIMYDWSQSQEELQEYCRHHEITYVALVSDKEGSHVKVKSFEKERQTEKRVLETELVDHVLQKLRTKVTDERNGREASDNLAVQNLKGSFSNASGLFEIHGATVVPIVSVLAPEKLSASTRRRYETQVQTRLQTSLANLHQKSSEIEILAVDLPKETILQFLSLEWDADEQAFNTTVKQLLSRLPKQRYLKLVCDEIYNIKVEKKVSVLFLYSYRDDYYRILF
measurement.description: General control nonderepressible 2 (GCN2) inhibitory capacity, 33P-ATP filter assay
settings: recombinant human GCN2, 70 uM [gamma-33P-ATP], 40 minutes, room temperature
Procedure: <Experimental Example 2> Evaluation of General Control Nonderepressible 2 (GCN2) Inhibitory Capacity A recombinant human GCN2 protein was mixed with the compound in a reaction solution (20 mM Tris/HCl pH8.5, 0.2 mM EDTA, 0.1% Tween, 100 mM NaCl, 300 μM RSRSRSRSRSRSRSR, 10 mM Magnesium acetate, 70 uM [gamma-33P-ATP]) and reacted at room temperature for 40 minutes. […]
pIC50: −log10 of the molar value.
parameter.measured: pIC50

Ask: // returns reported pIC50 for input COc1ccc(Br)cc1S(=O)(=O)Nc1ccc(F)c(-n2c(=O)c3cnc(N)nc3n(C)c2=O)c1F
Result: 6.52 to 7.00

Ask: // returns reported pIC50 for input Cc1nn(C(F)F)c(C)c1S(=O)(=O)Nc1ccc(F)c(-c2cc3cnc(N)nc3n(C)c2=O)c1F
Result: < 6.00

Ask: // returns reported pIC50 for input Nc1ncc2c(=O)n(-c3c(F)ccc(NS(=O)(=O)c4cc(Cl)ccc4Cl)c3F)ccc2n1
Result: > 7.00

====

Listed here are compounds together with their documented IC50.
target.entity: recombinant human PERK protein (Homo sapiens, UniProt Q9NZJ5)
Sequence (Q9NZJ5 30-1116): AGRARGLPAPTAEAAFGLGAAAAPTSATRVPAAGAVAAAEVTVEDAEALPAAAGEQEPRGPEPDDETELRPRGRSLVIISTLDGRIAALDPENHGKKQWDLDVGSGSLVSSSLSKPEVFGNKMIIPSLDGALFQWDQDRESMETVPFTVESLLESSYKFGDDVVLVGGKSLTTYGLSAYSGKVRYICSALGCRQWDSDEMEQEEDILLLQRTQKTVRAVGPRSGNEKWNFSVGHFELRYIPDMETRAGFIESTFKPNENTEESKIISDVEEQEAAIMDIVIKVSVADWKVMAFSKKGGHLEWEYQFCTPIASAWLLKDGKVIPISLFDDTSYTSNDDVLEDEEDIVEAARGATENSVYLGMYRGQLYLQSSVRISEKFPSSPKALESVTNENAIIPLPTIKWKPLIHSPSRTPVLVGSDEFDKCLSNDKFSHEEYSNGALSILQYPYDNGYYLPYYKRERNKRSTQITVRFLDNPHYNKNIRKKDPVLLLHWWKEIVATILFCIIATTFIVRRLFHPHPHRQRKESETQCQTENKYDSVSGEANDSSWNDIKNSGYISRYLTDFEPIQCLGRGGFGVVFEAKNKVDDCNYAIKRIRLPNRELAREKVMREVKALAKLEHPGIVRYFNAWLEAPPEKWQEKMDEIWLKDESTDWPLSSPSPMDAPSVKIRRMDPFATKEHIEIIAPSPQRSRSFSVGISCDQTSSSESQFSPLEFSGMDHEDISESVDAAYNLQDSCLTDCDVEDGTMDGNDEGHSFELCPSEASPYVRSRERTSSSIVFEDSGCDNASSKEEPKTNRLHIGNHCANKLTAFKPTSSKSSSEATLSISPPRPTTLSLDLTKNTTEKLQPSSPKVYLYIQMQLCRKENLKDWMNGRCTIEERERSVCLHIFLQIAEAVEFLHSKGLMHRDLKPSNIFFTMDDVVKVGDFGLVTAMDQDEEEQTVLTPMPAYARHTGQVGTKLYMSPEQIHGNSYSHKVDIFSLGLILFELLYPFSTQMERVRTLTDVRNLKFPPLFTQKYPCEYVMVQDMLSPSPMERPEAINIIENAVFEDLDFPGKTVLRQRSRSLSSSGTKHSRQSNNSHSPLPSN
measurement.description: PKR-like endoplasmic reticulum kinase (PERK) inhibitory capacity, 33P-ATP filter assay
Assay type: biochemical
settings: 15 uM [gamma-33P-ATP], 40 minutes, room temperature

compound	target.entity	IC50
COc1ncc(Cl)cc1S(=O)(=O)Nc1ccc(F)c(-n2c(=O)c3cnc(N)nc3n(C)c2=O)c1F [Example 44]	recombinant human PERK protein (Homo sapiens, UniProt Q9NZJ5)	< 100 nM
CNc1ncc2cc(-c3c(F)ccc(NS(=O)(=O)c4cc(Cl)ccc4Cl)c3F)c(=O)n(C)c2n1 [Example 20]	recombinant human PERK protein (Homo sapiens, UniProt Q9NZJ5)	> 1000 nM
Cn1c(=O)c(-c2c(F)ccc(NS(=O)(=O)c3c(Cl)nc4sccn34)c2F)cc2cnc(N)nc21 [Example 15]	recombinant human PERK protein (Homo sapiens, UniProt Q9NZJ5)	100 to 300 nM
Cn1c(=O)c(-c2c(F)ccc(NS(=O)(=O)c3cc(Cl)ccc3Cl)c2F)cc2cnc(N)nc21 [Example 14]	recombinant human PERK protein (Homo sapiens, UniProt Q9NZJ5)	< 100 nM

Now, please, on to the next compound.
Ask: // returns reported IC50 for input Nc1ncc2c(=O)n(-c3c(F)ccc(NS(=O)(=O)c4cc(Cl)cnc4Cl)c3F)ccc2n1 [Example 27]
Result: < 100 nM
